The reported numbers originate from patent US10143695B2.

# Test system: SKBR3 cells (HER2 expressing cells)
# measurement.protocol: CellTiter-Glo cell viability assay, SKBR3
# Assay type: cell-based
# experimental.parameters: Homo sapiens, SK-BR-3; PBD compounds, 72 h incubation
assay.endpoint: log10 of IC50 (log10 of the value in nM)
Each number you see is log10 of IC50, and the unit inside the log is nM.

Assay SKBR3 cells (HER2 expressing cells), sample C=C1C[C@H]2C=Nc3cc(OCCCC(=O)Nc4cn(C)c(C(=O)Nc5cc(C(=O)Nc6cc(C(=O)n7ccc8cc(OC)ccc87)n(C)c6)n(C)c5)n4)c(OC)cc3C(=O)N2C1 , log10 of IC50 read: -0.82

Assay SKBR3 cells (HER2 expressing cells), sample COc1cc2c(cc1OCCCC(=O)Nc1cc(C(=O)Nc3cc(C(=O)Nc4cc(C(=O)NCCCO)n(C)c4)n(C)c3)n(C)c1)N=C[C@@H]1Cc3ccccc3N1C2=O , log10 of IC50 read: 0.18

Assay SKBR3 cells (HER2 expressing cells), sample C=C1C[C@H]2C=Nc3cc(OCCCC(=O)Nc4cn(C)c(C(=O)Nc5cc(C(=O)Nc6cc(C(=O)n7ccc8ccc(N)cc87)n(C)c6)n(C)c5)n4)c(OC)cc3C(=O)N2C1 [Compound 13A] , log10 of IC50 read: -0.55

Assay SKBR3 cells (HER2 expressing cells), sample C=C1C[C@H]2C=Nc3cc(OCCCC(=O)Nc4cn(C)c(C(=O)Nc5cc(C(=O)Nc6cc(C(=O)n7ccc8cc(CN)ccc87)n(C)c6)n(C)c5)n4)c(OC)cc3C(=O)N2C1 , log10 of IC50 read: -0.74

Assay SKBR3 cells (HER2 expressing cells), sample C=C1C[C@H]2C=Nc3cc(OCCCC(=O)Nc4cn(C)c(C(=O)Nc5cc(C(=O)Nc6cc(C(=O)N7CCc8cc(N)ccc87)n(C)c6)n(C)c5)n4)c(OC)cc3C(=O)N2C1 , log10 of IC50 read: 0.15

Assay SKBR3 cells (HER2 expressing cells), sample C=C1C[C@H]2C=Nc3cc(OCCCC(=O)Nc4cn(C)c(C(=O)Nc5cc(C(=O)Nc6cc(C(=O)n7ccc8cc(C(=O)OC)cnc87)n(C)c6)n(C)c5)n4)c(OC)cc3C(=O)N2C1 , log10 of IC50 read: -0.24

Assay SKBR3 cells (HER2 expressing cells), sample C=C1C[C@H]2C=Nc3cc(OCCCC(=O)Nc4cn(C)c(C(=O)Nc5cc(C(=O)Nc6cc(C(=O)N7Cc8ccc(N)cc8C7)n(C)c6)n(C)c5)n4)c(OC)cc3C(=O)N2C1 , log10 of IC50 read: 0.18

Assay SKBR3 cells (HER2 expressing cells), sample COc1cc2c(cc1OCCCC(=O)Nc1cn(C)c(C(=O)Nc3cc(C(=O)Nc4cc(C(=O)n5ccc6cc(N)ccc65)n(C)c4)n(C)c3)n1)N=C[C@@H]1Cc3ccccc3N1C2=O , log10 of IC50 read: -1.22

Assay SKBR3 cells (HER2 expressing cells), sample C=C1C[C@H]2C=Nc3cc(OCCCC(=O)Nc4cn(C)c(C(=O)Nc5cc(C(=O)Nc6cc(C(=O)n7ccc8cc(C(=O)OC)ccc87)n(C)c6)n(C)c5)n4)c(OC)cc3C(=O)N2C1 , log10 of IC50 read: -0.85

Assay SKBR3 cells (HER2 expressing cells), sample C=C1C[C@H]2C=Nc3cc(OCCCC(=O)Nc4cn(C)c(C(=O)Nc5cc(C(=O)Nc6cnc7[nH]ccc7c6)n(C)c5)n4)c(OC)cc3C(=O)N2C1 , log10 of IC50 read: -0.18

----------
# Tested on: SKBR3 cells (HER2 expressing cells)
# measurement.protocol: CellTiter-Glo cell viability assay, SKBR3
# Assay type: cell-based
# experimental.parameters: Homo sapiens, SK-BR-3; PBD compounds, 72 h incubation
Would you kindly list log10(IC50) for each of these compounds?
Each number you see is log10 of IC50, and the unit inside the log is nM.

Recorded log10(IC50) (compound C=C1C[C@H]2C=Nc3cc(OCCCC(=O)Nc4cn(C)c(C(=O)Nc5cc(C(=O)n6ccc7cc(N)ccc76)n(C)c5)n4)c(OC)cc3C(=O)N2C1 ): -0.40

Recorded log10(IC50) (compound C=C1C[C@H]2C=Nc3cc(OCCCC(=O)Nc4cn(C)c(C(=O)Nc5cc(C(=O)Nc6cc(C(=O)n7ncc8ccc(N)cc87)n(C)c6)n(C)c5)n4)c(OC)cc3C(=O)N2C1 ): -0.80

Recorded log10(IC50) (compound C=C1CC2C=Nc3cc(OCCCC(=O)Nc4cn(C)c(C(=O)Nc5cc(C(=O)Nc6cc(C(=O)NCCCO)n(C)c6)n(C)c5)n4)c(OC)cc3C(=O)N2C1 (stereo in doubt) ): 0.90

Recorded log10(IC50) (compound C=C1C[C@H]2C=Nc3cc(OCCCC(=O)Nc4cn(C)c(C(=O)Nc5cc(C(=O)Nc6cc(C(=O)n7ccc8cc(SC)ccc87)n(C)c6)n(C)c5)n4)c(OC)cc3C(=O)N2C1 ): -0.70

Recorded log10(IC50) (compound C=C1C[C@H]2C=Nc3cc(OCCCC(=O)Nc4cn(C)c(C(=O)Nc5cc(C(=O)Nc6cc(C(=O)NCc7ccc(N)cc7)n(C)c6)n(C)c5)n4)c(OC)cc3C(=O)N2C1 ): 0.97

Recorded log10(IC50) (compound C=C1C[C@H]2C=Nc3cc(OCCCC(=O)Nc4cn(C)c(C(=O)Nc5cc(C(=O)N6Cc7ccc(N)cc7C6)n(C)c5)n4)c(OC)cc3C(=O)N2C1 ): -0.01
